Values from patent CN115232210A

- System: T1, 重组人CD40-his蛋白 (human, UniProt P25942 21-193)
- T1 construct: extracellular domain; Recombinant protein; also called 人CD40(ECD)-his; huCD40-his; not shown: his tag
- T1 sequence (P25942 21-193): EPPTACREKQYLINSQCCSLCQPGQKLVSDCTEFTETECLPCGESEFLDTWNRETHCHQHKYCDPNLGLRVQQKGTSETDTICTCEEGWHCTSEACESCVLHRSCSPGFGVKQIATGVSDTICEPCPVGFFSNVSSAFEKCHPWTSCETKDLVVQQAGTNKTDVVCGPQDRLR
- Procedure summary: BLI (Fortebio Blitz), antibody on AMC sensor, huCD40-his 6.25-200 nM
Reported property: koff (s⁻¹)
Kindly provide the numeric value in s⁻¹ only, without the unit symbol.

Field request: koff | item: 人源化抗体31 (antibody, human IgG1, kappa, V domains shown, Humanized IgG1/kappa; also called 31A2-2-humanized; 31Humanized) VH: QVQLQESGPGLVKPSETLSLTCTVSGFSLTSYSVHWVRQPPGKGLEWLGMIWSGGSTDYNAAFISRLTISKDNSKSQVSLKLSSVTAADTAVYYCARVGGDYWGQGTTVTVSS VL: DVVMTQSPLSLPVTLGQPASITCRSSQSLLHSRGNTYLHWFQQRPGQSPRLLIYKVSNRFSGVPDRFSGSGSGTDFTLKISRVEAEDVGVYFCFQTTHVPWTFGQGTRLEIKR
0.00223

If you can, please state the reported koff value of 嵌合抗体C31 (antibody, human IgG1, kappa, V domains shown, Mouse-human chimeric IgG1/kappa expressed in Expi-293 cells; also called 31Chimeric; 抗体31A2-2的鼠人嵌合抗体) VH: QVQLKESGPGLVQPSQSLSITCTVSGFSLTNYSVHWVRQSPGKGLEWLGMIWSGGSTDYNAAFISRLSISKDNFKSQVFFKMNSLQADDTAIYYCARVGGDYWGQGTTVTVSS VL: DVLMTQTPLSLPVSLGDPASISCRSSQSLLHSRGNTYLHWFLQKPGQSPKLLIYKVSNRFSGVPDRFSGSGSGTDFTLRISRVEAEDLGVYFCFQTTHVPWTFGGGTKLEIKR .
0.000395

Please report the recorded koff for 人源化抗体42 (antibody, human IgG1, kappa, V domains shown, Humanized IgG1/kappa; also called 42D11-8-humanized; 42Humanized) VH: QVQLQESGPGLVKPSQTLSLTCTVSGFSLTSYGVHWVRQHPGKGLEWLGMIWSGGSTDYNSAFISRLTISKDNSKSQVSLKLSSVTAADTAVYYCARVGGDYWGQGTTVTVSS VL: DIVITQSPLSLPVTLGQPASITCRSSQSLVHSRGNTYLHWFQQRPGQSPRLLIYKVSNRFSGVPDRFSGSGSGTDFTLKISRVEAEDVGVYFCFQTTHVPWTFGQGTRLEIKR .
0.00312

I would be grateful if you could share the reported koff for 嵌合抗体C42 (antibody, human IgG1, kappa, V domains shown, Mouse-human chimeric IgG1/kappa expressed in Expi-293 cells; also called 42Chimeric; 抗体42D11-8的嵌合抗体) VH: QVQLKQSGPGLVQPSQSLSITCTVSGFSLTSYGVHWVRQSPGKGLEWLGMIWSGGSTDYNSAFISRLSISKDNFKSQVFFKMNSLQADDTAIYYCARVGGDYWGQGTTVTVSS VL: DIVITQTPLSLPVSLGDPASISCRSSQSLVHSRGNTYLHWFLQKPGQSPKLLIYKVSNRFSGVPDRFSGSGSGTDFTLRISRLEAEDLGVYFCFQTTHVPWTFGGGTKLEIKR .
0.00524
